# measured.target: HIV-1 integrase (Human immunodeficiency virus type 1 group M subtype B)
# assay.explanation: HIV-1 integrase inhibition assay (microtiter plate, substrate DNA/target DNA, OD 405 nm)
# Format: biochemical
# setup.conditions: HIV-1 integrase; concentration of the compound at percent inhibition 50%; OD 405 nm; read-out: IC50 (μg/ml) (converted)
readout.name: IC50 (nM)
# output: bare number, implied unit nM

[[record]]
molecule = "O=C(O)C(O)=Cc1ccc(OCc2ccccc2)cn1 [Compound I-3]"
readout_name = "IC50"
units_label = "nM"
observed_value = 1140

[[record]]
molecule = "CCOC(=O)C(O)=Cc1ccc(OCc2ccccc2)cn1 [Compound I-2]"
readout_name = "IC50"
units_label = "nM"
observed_value = 1770

[[record]]
molecule = "CCOC(=O)C(O)=Cc1cc(CCc2ccccc2)ncn1 [Compound I-24]"
readout_name = "IC50"
units_label = "nM"
observed_value = 1010


// below: IC50 requested for another molecule
Incoming: Give IC50 (HIV-1 integrase (Human immunodeficiency virus type 1 group M subtype B)) of the following molecule: O=C(O)C(O)=Cc1ccc(OCc2ccc(F)cc2F)cn1 [Compound I-47]
Outgoing: 1630

---

# measured.target: UniProt P04585
# assay.explanation: HIV-1 integrase inhibition assay (microtiter plate, substrate DNA/target DNA, OD 405 nm)
# Assay type: biochemical
# setup.conditions: HIV-1 integrase; concentration of the compound at percent inhibition 50%; OD 405 nm; read-out: IC50 (μg/ml) (converted)
Using IC50 as the sorting value, the categories are low class: < 2 µM; middle class: ≥ 2 µM and < 10 µM; high class: ≥ 10 µM

# count of solved cases: 9
[[record]]
molecule = "O=C(O)/C(O)=C/c1nnc(CCc2ccccc2)s1 [Compound I-35]"
measured_target = "UniProt P04585"
cat = "low class"

[[record]]
molecule = "COc1cc(/C=C(\\O)C(=O)O)ccc1OCc1ccccc1 [Compound X-1, reference compound]"
measured_target = "UniProt P04585"
cat = "high class"

[[record]]
molecule = "O=C(O)/C(O)=C/c1cnc(CCc2ccccc2)cn1 [Compound I-27]"
measured_target = "UniProt P04585"
cat = "middle class"

[[record]]
molecule = "CCOC(=O)C(O)=Cc1ccc(OCc2ccc(F)cc2F)cn1 [Compound I-46]"
measured_target = "UniProt P04585"
cat = "low class"

[[record]]
molecule = "OC(=Cc1ccc(OCc2ccccc2)cn1)c1nc[nH]n1 [Compound I-14]"
measured_target = "UniProt P04585"
cat = "middle class"

[[record]]
molecule = "CC(C)CCOc1ccc(/C=C(\\O)C(=O)O)nc1 [Compound I-9]"
measured_target = "UniProt P04585"
cat = "high class"

[[record]]
molecule = "O=C(O)/C(O)=C/c1ccc(OCC2CCCCC2)cn1 [Compound I-7]"
measured_target = "UniProt P04585"
cat = "middle class"

[[record]]
molecule = "O=C(O)C(O)=Cc1cc(CCc2ccccc2)ncn1 [Compound I-25]"
measured_target = "UniProt P04585"
cat = "low class"

[[record]]
molecule = "O=C(O)/C(O)=C/c1ccc(OCc2ccccc2)cc1 [Compound X-3, reference compound]"
measured_target = "UniProt P04585"
cat = "high class"


Incoming: Class (by measured IC50) for O=C(O)/C(O)=C/c1ccc(OCc2ccc(C(F)(F)F)cc2)cn1 [Compound I-49]
Outgoing: high class
